Test system: MRSA isolates
Assay: MIC/MBC, CLSI broth microdilution, MRSA isolates
Format: cell-based, Staphylococcus aureus
Settings: Staphylococcus aureus, MRSA, pH 7.4, MRSA 0608, pH 7.4

- molecule: "[Na+].[Na+].[O-]c1c(Cl)cc(Cl)cc1-c1cc(Cl)cc(Cl)c1[O-] [C59Na]"
  MIC / µg/mL: 2
- molecule: "[Li+].[Li+].[O-]c1c(Cl)cc(Cl)cc1-c1cc(Cl)cc(Cl)c1[O-] [C59Li]"
  MIC / µg/mL: 2
- molecule: "[K+].[K+].[O-]c1c(Cl)cc(Cl)cc1-c1cc(Cl)cc(Cl)c1[O-] [C59K]"
  MIC / µg/mL: 4
- molecule: "Oc1c(Cl)cc(Cl)cc1-c1cc(Cl)cc(Cl)c1O"
  MIC / µg/mL: 2
